assay notes: TOX21_p53_BLA_p3_viability: Viability Assessment in the Tox21 HCT-116 p53 Agonism Beta-lactamase Assay, Phase 3 (AID 2283593);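 note: cells exposed to compound for 16 h before reading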
Source text: TOX21_p53_BLA_p3 is a cell-based, single-readout assay that uses HCT116, a human intestinal cell line, […] in a 1536-well plate.TOX21_p53_BLA_p3_viability is an assay readout measuring cellular ATP content and detected with CellTiter-Glo Luciferase-coupled ATP quantitation.TOX21_p53_BLA_p3_viability used a type of viability reporter where loss-of-signal activity can be used to understand changes in the cell viability. […]
Inconclusive results are not listed. Calls of active or inactive are those of the source. Rule for the calls: active = hit-call score of the fitted dose curve at least 0.9, where 1 is the maximum; inconclusive = response in the unintended direction; inactive = score below 0.9.
Possible outcomes: Y for active, N for inactive

compound	assigned label
CC(=O)CC(=O)Nc1ccccc1C	N
C=C(C)C(=O)OCCOC(=O)C(=C)C	N
C=C(C)[C@@H]1CC=C(C)CC1	N
CC(=O)OC1CCCCC1C(C)(C)C (stereo not drawn)	N
NNS(=O)(=O)c1ccc(Oc2ccc(S(=O)(=O)NN)cc2)cc1	N
c1ccc2cnccc2c1	N
Nc1ncnc2nc[nH]c12	N
CCCCC(=O)O	N
C1CNCCN1	N
O=C(Cl)c1c(Cl)c(Cl)c(C(=O)Cl)c(Cl)c1Cl	N
COC(=O)c1ccccc1C	N
CCc1cccc(C)c1N	N
N=C1C=CC(=C(c2ccc(N)cc2)c2ccc(N)cc2)C=C1	N
CC(CC(C)C)=NO	N
Cc1c(C(=O)c2c[nH]n(C)c2=O)ccc(S(C)(=O)=O)c1C1=NOCC1	N
COc1ccc(-c2coc3cc(O)cc(O)c3c2=O)cc1	N
CC(C)(C)NC(=O)[C@H]1CC[C@H]2[C@@H]3CC[C@H]4NC(=O)C=C[C@]4(C)[C@H]3CC[C@]12C	N
CCCCCOC(=O)CCCCC	N
O=C(O)/C=C/c1ccccc1	N
C=Cc1ccc(OC(C)=O)cc1	N
O=c1c(O)c(-c2ccc(O)cc2O)oc2cc(O)cc(O)c12	N
CC(CCC(=O)O)(c1ccc(O)cc1)c1ccc(O)cc1	N
CC1(C)[C@@H]2CC[C@@]1(C)C(=O)C2	N
CCCCCCCCCCCCCCCCCCOS(=O)(=O)O	Y
CCCCCCC=O	N
CCOC(=O)c1ccc(C)cc1	N
C=C[C@@]1(C)CC(=O)[C@]2(O)[C@@]3(C)[C@@H](O)CCC(C)(C)[C@@H]3[C@H](O)[C@H](OC(C)=O)[C@@]2(C)O1	N
C=C(C)OC(C)=O	N
CC(C)=CCl	N
Cc1ccccc1CCO	N
CC/C=C\CCOC(=O)c1ccccc1O	N
O=C(O)c1cc(O)c2ccccc2c1O	N
CC1OC(=O)C(C)OC1=O (stereo not drawn)	N
CCOC(=O)c1ccccc1C	N
O=C(O)c1ccc2c(c1)C(=O)OC2=O	N
Oc1c(Cl)cc(Cl)c(Cl)c1Cl	N
CCOC(=O)/C=C\C(=O)OCC	N
CC1=CCC2CC1C2(C)C (stereo not drawn)	N
C=CCNCC=C	N
C[Si](C)(C)N[Si](C)(C)C	N
Cc1cc(C)n(CO)n1	N
CC(C)CCCCCOC(=O)CS	N
Clc1cc(Cl)c(Cl)c(Cl)c1Cl	N
Cc1noc(NS(=O)(=O)c2ccc(N)cc2)c1C	N
CC1C(C)(C)C2=C(C(=O)CCC2)C1(C)C (stereo not drawn)	N
O=C(O)CC(C(=O)O)S(=O)(=O)O (stereo not drawn)	N
CC=C(C)C=CC=C(C)C	N
CC(=O)OCCc1ccccc1	N
